Source: ChEMBL document CHEMBL1148862

Assay: Drug level in Swiss SPF (CD1) mouse liver at 20 mg/kg, po after 4 hrs
Type: ADME, organism-based
Set-up: dose 20 mg/kg, route oral
Settings: read-out: Drug uptake
measuredAttribute: concentration at 4 h (ng/mL)
// note: answer is a bare numeric in ng/mL

GET /values?readout=concentration at 4 h&item= "O=C(NCCCN1CCCC1=O)c1cnccc1Nc1nc(-c2cc(Br)ccc2F)nc2nccnc12"
627

----------
Assay: Drug level in Swiss SPF (CD1) mouse plasma at 20 mg/kg, po after 2 hrs
Format: ADME, organism-based
Set-up: dose 20 mg/kg, route oral
measuredAttribute: concentration at 2 h (ng/mL)
# value in ng/mL; strip the unit string

Give the measured concentration at 2 h of "O=C(NCCCN1CCCC1=O)c1cnccc1Nc1nc(-c2cc(Br)ccc2F)nc2nccnc12" .
21.7

----------
Test: AUC (0 to 8 hrs) in Swiss SPF (CD1) mouse plasma at 20 mg/kg, po
Assay type: ADME, organism-based
Set-up: time < 8 hr, dose 20 mg/kg, route oral
measuredAttribute: AUC(0-t) at 8 h (ng·h/mL)
API: value field is a number in ng·h/mL; no unit string.

What does the record list as AUC(0-t) at 8 h for "O=C(NCCCN1CCCC1=O)c1cnccc1Nc1nc(-c2cc(Br)ccc2F)nc2nccnc12" ?
309

----------
Experiment: Tmax in Swiss SPF (CD1) mouse plasma at 20 mg/kg, po
Assay type: ADME, organism-based
Set-up: dose 20 mg/kg, route oral
measuredAttribute: Tmax (min)
Enter your answer as a number in min; do not include the unit.

Sample "O=C(NCCCN1CCCC1=O)c1cnccc1Nc1nc(-c2cc(Br)ccc2F)nc2nccnc12" — what was its Tmax?
30

----------
Assay: AUC (0 to 8 hrs) in Swiss SPF (CD1) mouse heart at 20 mg/kg, po
Assay type: ADME, organism-based
Parameters: time < 8 hr, dose 20 mg/kg, route oral
measuredAttribute: AUC(0-t) at 8 h
State the value, then name its unit.

Tell me the measured AUC(0-t) at 8 h of "O=C(NCCCN1CCCC1=O)c1cnccc1Nc1nc(-c2cc(Br)ccc2F)nc2nccnc12" , please.
1120 ng·h/mL

----------
Test: AUC (0 to infinity) in Swiss SPF (CD1) mouse plasma at 20 mg/kg, po
Format: ADME, organism-based
Parameters: time infinity, dose 20 mg/kg, route oral
measuredAttribute: AUC(0-inf) (ng·h/mL)
Could you give me the number in ng·h/mL? Just the number is fine.

Value lookup for AUC(0-inf); key = "O=C(NCCCN1CCCC1=O)c1cnccc1Nc1nc(-c2cc(Br)ccc2F)nc2nccnc12"
332

----------
Assay: Drug level in Swiss SPF (CD1) mouse heart at 20 mg/kg, po after 0.5 hrs
Type: ADME, organism-based
Design: dose 20 mg/kg, route oral
Settings: read-out: Drug uptake
measuredAttribute: concentration at 0.5 h (ng/mL)
Number only, in ng/mL; omit the unit.

Can you look up the measured concentration at 0.5 h of "O=C(NCCCN1CCCC1=O)c1cnccc1Nc1nc(-c2cc(Br)ccc2F)nc2nccnc12" for me?
678

----------
Molecular target: TGF-beta receptor type-1 (Homo sapiens, UniProt P36897)
Sequence (P36897 whole entry): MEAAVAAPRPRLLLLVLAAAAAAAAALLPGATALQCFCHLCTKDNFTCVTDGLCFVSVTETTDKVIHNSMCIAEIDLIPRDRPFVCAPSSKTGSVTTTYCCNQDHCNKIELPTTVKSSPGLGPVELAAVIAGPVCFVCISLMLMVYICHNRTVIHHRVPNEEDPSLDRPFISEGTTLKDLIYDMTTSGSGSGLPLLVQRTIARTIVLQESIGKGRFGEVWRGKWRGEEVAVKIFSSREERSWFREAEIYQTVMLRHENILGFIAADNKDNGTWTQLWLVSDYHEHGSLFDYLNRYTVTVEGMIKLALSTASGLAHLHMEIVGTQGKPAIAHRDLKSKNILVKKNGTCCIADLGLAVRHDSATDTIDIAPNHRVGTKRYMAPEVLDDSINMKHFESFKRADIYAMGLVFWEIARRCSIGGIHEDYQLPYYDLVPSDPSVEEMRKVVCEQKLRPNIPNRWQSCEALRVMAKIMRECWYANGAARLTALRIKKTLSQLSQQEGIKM
measuredAttribute: pIC50
// returns pIC50 (minus log10 of molar concentration), number only

Field: pIC50 (TGF-beta receptor type-1 (Homo sapiens, UniProt P36897)). Entry: "O=C(NCCCN1CCCC1=O)c1cnccc1Nc1nc(-c2cc(Br)ccc2F)nc2nccnc12"
8.49
